- measured_on: human Y4 receptor (human, UniProt P50391 1-375)
- Sequence (P50391 whole entry): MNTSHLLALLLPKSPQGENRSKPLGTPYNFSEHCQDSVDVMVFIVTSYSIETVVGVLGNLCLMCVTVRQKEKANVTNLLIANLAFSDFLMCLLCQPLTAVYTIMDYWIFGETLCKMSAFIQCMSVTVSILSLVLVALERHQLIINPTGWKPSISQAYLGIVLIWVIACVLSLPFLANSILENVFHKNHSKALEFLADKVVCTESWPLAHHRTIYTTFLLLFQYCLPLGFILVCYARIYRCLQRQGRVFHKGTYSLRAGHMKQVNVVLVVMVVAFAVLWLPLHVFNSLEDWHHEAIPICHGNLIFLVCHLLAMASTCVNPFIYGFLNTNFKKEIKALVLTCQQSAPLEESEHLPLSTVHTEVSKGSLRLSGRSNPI
- method_summary: 125I-PP displacement
pIC50: −log10 of the molar value.
measured_endpoint: pIC50

- YAPLEPHYPGDDATPQQMARYAAELRRYINLLTRPRY [4058055]: 9.96
- AAPLEPHYPGDNATPEQMAKYAAALRRYINKLTRPRY [4057755]: 9.84
- AAPLEPTYPGDNATPEQLAHYYSELRRYINKLTRPRY [4057784]: 9.99

Data provenance is patent US20100279930A1.
